tested_target: BRG-1 (Homo sapiens)
Sequence (P51532 whole entry): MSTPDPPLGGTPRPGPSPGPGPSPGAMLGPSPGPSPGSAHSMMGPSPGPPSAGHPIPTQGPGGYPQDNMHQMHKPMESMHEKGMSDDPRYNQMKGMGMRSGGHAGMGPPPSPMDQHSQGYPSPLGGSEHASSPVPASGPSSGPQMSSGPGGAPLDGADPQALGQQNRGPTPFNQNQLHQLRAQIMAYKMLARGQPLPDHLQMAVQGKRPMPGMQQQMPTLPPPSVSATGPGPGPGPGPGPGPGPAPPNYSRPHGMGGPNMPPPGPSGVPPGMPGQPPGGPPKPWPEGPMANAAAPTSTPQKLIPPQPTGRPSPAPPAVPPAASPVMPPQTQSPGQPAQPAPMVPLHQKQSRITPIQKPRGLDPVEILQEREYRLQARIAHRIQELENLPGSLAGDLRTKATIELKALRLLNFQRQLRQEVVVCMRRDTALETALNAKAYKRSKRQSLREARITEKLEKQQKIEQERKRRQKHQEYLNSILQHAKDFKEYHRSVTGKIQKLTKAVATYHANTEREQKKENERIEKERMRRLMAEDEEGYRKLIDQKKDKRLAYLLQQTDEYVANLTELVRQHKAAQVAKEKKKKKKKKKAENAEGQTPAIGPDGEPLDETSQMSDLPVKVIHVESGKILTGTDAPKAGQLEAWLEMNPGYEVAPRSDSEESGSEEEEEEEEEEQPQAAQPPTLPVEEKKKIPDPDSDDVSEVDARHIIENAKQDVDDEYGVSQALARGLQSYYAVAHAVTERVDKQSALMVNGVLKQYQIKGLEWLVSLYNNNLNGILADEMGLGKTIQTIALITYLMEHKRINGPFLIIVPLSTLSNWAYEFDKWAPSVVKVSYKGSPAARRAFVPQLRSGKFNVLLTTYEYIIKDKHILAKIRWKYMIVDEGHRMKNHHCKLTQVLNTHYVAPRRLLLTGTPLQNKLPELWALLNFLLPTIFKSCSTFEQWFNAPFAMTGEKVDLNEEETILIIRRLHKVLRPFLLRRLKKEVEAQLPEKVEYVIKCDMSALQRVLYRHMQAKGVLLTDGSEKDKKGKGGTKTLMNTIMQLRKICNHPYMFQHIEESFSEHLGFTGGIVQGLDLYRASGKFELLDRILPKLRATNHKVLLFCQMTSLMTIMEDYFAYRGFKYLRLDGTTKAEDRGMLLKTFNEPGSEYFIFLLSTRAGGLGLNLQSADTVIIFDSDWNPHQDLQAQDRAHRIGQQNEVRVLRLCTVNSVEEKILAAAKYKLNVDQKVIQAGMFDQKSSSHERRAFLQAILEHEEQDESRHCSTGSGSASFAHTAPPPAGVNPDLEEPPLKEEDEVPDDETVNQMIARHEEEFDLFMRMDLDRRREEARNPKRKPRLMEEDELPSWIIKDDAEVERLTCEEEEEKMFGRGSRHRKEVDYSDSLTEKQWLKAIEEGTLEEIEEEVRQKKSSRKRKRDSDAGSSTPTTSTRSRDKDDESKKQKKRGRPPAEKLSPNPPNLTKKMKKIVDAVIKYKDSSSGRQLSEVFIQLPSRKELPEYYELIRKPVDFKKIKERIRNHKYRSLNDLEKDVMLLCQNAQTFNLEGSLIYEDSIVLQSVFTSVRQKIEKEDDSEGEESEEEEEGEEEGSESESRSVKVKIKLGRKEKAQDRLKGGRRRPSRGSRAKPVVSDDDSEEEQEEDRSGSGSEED
assay_notes: ATPase catalytic activity assay (ADP-Glo), BRG-1
settings: 1 h, read-out: BRG1 Max % Inhibition, ADP-Glo, 30 nM BRG-1, 400 μM ATP
Item-by-item account of Emax
assay_endpoint: Emax

In [3]: df
Out[3]:
                                    molecule  result
 0  C[C@H](O)c1cccc(-c2ccc3cnc(CNC(=O)c4ccc5c(c4)[C@](C)(F)COC5)cc3n2)n1 [Compound 213]     63%
 1  COC(=O)c1cccc(C#Cc2ccnc(CNC(=O)c3ccc4c(c3)[C@](C)(C#N)CCO4)c2)c1 [Compound 24]     65%
 2  C[C@@]1(F)COCc2ccc(C(=O)NCc3cc4nc(-c5ccnc(C6CC6)n5)sc4cn3)cc21 [Compound 199]     14%
 3  C[C@@]1(C#N)COCc2ccc(C(=O)NCc3cc4nc(-c5ccc(C(F)F)cc5)ccc4cn3)cc21 [Compound 519]     90%
 4  C[C@H](NC(=O)c1ccc2c(c1)[C@](C)(C#N)COC2)c1cc2nc(-c3ccccc3)ccc2cn1 [Compound 87]     87%
 5  C[C@@]1(C#N)COCc2ccc(C(=O)NCc3cc([C@H]4C[C@@H](c5ccccc5)C4)ccn3)cc21 [Compound 19]     89%
 6  COc1nn(C)cc1-c1nc2cc(CNC(=O)c3ccc4c(c3)[C@](C)(C#N)COC4)ncc2s1 [Compound 274]     45%
 7  C[C@@]1(C#N)COCc2ccc(C(=O)NCc3cc(N4CC(n5ccc6ccccc65)C4)ccn3)cc21 [Compound 59]     56%
 8  COc1nn(C2CC2)cc1-c1ccc2cnc(CNC(=O)c3ccc4c(c3)[C@](C)(C#N)COC4)cc2n1 [Compound 225]     72%
 9  C[C@@]1(F)COCc2c(F)cc(C(=O)NCc3cc4nc(-c5cncc(N6CCC6)n5)ccc4cn3)cc21 [Compound 398]     91%
10  C[C@@]1(F)COCc2ccc(C(=O)NCc3cc4nc(-c5cccc(C6(CO)CC6)n5)ccc4cn3)cc21 [Compound 168]     93%
11  COc1nn(C(F)F)cc1-c1ccc2cnc(CNC(=O)c3cnc4c(c3)[C@](C)(F)COC4)cc2n1 [Compound 192]     60%
12  CC(C)n1ccc2c(-c3ccc4cnc(CNC(=O)c5ccc6c(c5)[C@](C)(C#N)COC6)cc4n3)cccc21 [Compound 174]     95%
13  Cc1cc(-c2ccc3cnc(CNC(=O)c4ccc5c(c4)[C@](C)(C#N)COC5)cc3n2)n[nH]1 [Compound 264]     72%
14  Cn1cc2c(n1)CN(c1ccc3cnc(CNC(=O)c4ccc5c(c4)[C@](C)(C#N)COC5)cc3n1)CC2 [Compound 458]     74%
15  C[C@@]1(C#N)COCc2ccc(C(=O)NCc3cc(N4CCc5cc(C(F)F)ccc5C4)ccn3)cc21 [Compound 67]     84%
16  C[C@@]1(C#N)COCc2ccc(C(=O)NCc3cc([C@H]4C[C@@H](c5cccc(N6CCOCC6)n5)C4)ccn3)cc21 [Compound 80]     29%
17  CCn1ccc2c(-c3ccc4cnc(CNC(=O)c5ccc6c(c5)[C@](C)(C#N)COC6)cc4n3)cccc21 [Compound 178]     96%
18  CN(C)c1nccc(-c2ccc3cnc(CNC(=O)c4ccc5c(c4)[C@](C)(C#N)COC5)cc3n2)n1 [Compound 424]     96%
19  C[C@@]1(C#N)COCc2ncc(C(=O)NCc3cc4nc(-c5cc(F)cc(N6CCC6)c5)ccc4cn3)cc21 [Compound 487]     95%
20  C[C@@]1(F)COCc2ccc(C(=O)NCc3cc4nc(-c5cccc(C6(O)CCOC6)n5)ccc4cn3)cc21 (some centres unmarked) [Compound 249]     71%
21  C[C@@]1(C#N)COCc2ccc(C(=O)NCc3cc(C4CCN(c5cccc(C(F)F)n5)C4)ccn3)cc21 (some centres unmarked) [Compound 69]     50%
22  C[C@@]1(F)COCc2ncc(C(=O)NCc3cc4nc(-c5ccccc5)sc4cn3)cc21 [Compound 290]     53%
23  C[C@]1(F)CCCc2ncc(C(=O)NCc3cc4nc(-c5cncc(C6CC6)n5)ccc4cn3)cc21 [Compound 252]     33%
24  Cn1ccc2c(c1=O)CCN(c1ccnc(CNC(=O)c3ccc4c(c3)[C@](C)(C#N)COC4)c1)C2 [Compound 73]     44%
25  COc1c(-c2ccc3cnc(CNC(=O)c4ccc5c(c4)[C@](C)(C#N)COC5)cc3n2)cnn1C(F)F [Compound 184]     67%
26  C[C@@]1(C#N)COCc2ccc(C(=O)NCc3cc4nc(-c5ccnc(C6CC6)n5)ccc4cn3)cc21 [Compound 417]     91%
27  Cn1nccc(-c2ccc3cnc(CNC(=O)c4ccc5c(c4)[C@](C)(F)COC5)cc3n2)c1=O [Compound 293]     33%
28  COc1cccc(-c2ccc3cnc(CNC(=O)c4ccc5c(c4)[C@](C)(C#N)COC5)cc3n2)c1 [Compound 91]     85%

* * *

tested_target: UniProt P51531
Sequence (P51531 whole entry): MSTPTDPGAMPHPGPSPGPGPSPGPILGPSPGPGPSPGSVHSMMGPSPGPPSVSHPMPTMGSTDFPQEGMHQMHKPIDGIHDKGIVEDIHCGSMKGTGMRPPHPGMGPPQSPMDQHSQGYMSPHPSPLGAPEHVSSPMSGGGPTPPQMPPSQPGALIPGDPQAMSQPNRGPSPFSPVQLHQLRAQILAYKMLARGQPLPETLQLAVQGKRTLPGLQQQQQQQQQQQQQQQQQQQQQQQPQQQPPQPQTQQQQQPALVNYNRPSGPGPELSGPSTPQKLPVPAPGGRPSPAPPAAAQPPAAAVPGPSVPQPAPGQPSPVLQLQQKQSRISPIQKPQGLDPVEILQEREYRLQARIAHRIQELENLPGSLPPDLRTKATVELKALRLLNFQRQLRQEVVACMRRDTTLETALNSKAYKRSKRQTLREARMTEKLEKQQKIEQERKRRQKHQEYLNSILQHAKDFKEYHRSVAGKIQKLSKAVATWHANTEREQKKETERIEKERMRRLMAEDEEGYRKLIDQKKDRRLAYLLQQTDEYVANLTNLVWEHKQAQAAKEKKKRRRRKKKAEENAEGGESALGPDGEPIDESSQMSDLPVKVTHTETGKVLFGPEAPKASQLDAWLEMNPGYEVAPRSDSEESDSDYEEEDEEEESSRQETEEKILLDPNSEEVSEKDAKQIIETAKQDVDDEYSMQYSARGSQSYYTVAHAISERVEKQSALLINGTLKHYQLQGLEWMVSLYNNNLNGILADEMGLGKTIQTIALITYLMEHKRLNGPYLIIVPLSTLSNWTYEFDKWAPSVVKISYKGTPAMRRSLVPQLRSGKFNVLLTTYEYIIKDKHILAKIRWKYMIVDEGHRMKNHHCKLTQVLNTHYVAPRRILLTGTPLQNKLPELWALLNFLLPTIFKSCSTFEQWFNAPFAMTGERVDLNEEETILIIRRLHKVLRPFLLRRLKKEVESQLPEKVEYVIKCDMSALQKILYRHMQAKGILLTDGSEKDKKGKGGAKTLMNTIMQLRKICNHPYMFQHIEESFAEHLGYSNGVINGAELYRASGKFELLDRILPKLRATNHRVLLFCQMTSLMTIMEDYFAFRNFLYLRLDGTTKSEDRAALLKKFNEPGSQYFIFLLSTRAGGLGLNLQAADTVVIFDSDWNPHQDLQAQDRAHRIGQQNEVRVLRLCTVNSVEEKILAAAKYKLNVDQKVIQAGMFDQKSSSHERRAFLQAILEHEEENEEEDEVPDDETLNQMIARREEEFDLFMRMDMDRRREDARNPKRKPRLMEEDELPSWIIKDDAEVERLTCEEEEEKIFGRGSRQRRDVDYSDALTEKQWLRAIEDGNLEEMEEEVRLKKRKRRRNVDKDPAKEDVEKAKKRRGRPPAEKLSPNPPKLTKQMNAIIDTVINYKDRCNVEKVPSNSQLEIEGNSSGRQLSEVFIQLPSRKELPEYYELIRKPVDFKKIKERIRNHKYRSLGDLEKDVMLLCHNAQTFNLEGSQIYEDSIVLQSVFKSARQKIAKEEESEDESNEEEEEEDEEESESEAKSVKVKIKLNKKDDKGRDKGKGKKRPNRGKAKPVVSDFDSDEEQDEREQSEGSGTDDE
assay_notes: ATPase catalytic activity assay (ADP-Glo), BRM
settings: 30 nM BRM, 400 μM ATP
assay_endpoint: BRM Max % Inhibition (%)

>>> print(df.to_string())
                                    compound  numeric_value
 0  COc1cc(F)cc(-c2ccc3cnc(CNC(=O)c4ccc5c(c4)[C@](C)(C#N)COC5)cc3n2)c1             98
 1  CNC(=O)c1ccc(-c2ccc3cnc(CNC(=O)c4ccc5c(c4)[C@](C)(C#N)COC5)cc3n2)cc1            105
 2  C[C@@]1(C#N)COCc2ccc(C(=O)NCc3cc4c(cn3)CCN(c3cncc(N5CCC5)n3)C4)cc21             99
 3  C[C@@]1(C#N)COCc2ccc(C(=O)NCc3cc(N4CCc5ccccc5C4)cnn3)cc21             97
 4  CNC(=O)c1cc(-c2ccc3cnc(CNC(=O)c4ccc5c(c4)[C@](C)(C#N)COC5)cc3n2)ccc1F             99
 5  C[C@@]1(C#N)COCc2ccc(C(=O)NCc3cc4cc(-c5nccc(N6CCC6)n5)cnc4cn3)cc21             93
 6  CCC(C)(O)c1cccc(-c2ccc3cnc(CNC(=O)c4ccc5c(c4)[C@](C)(F)COC5)cc3n2)n1 (stereo partly shown)             91
 7  Cn1ncc2ccc(-c3ccc4cnc(CNC(=O)c5ccc6c(c5)[C@](C)(C#N)COC6)cc4n3)cc2c1=O             97
 8  C[C@@]1(C#N)COCc2ccc(C(=O)NCc3cc4nc(-c5cccc(N6CCC6)c5)ccc4cn3)cc21             95
 9  O=C(NCc1cc2nc(-c3cncc(C4CC4)n3)ccc2cn1)c1cnc2c(c1)C(O)(C(F)F)COC2 (stereo not shown)             88
10  C[C@@]1(C#N)COCc2ccc(C(=O)NCc3cc4nc(-c5cnn(-c6ccncc6)c5)ccc4cn3)cc21             88
11  C[C@@]1(F)COCc2ncc(C(=O)NCc3cc4nc(-c5ccnc(N6CCC6)c5F)ccc4cn3)cc21            100
12  C[C@@]1(C#N)COCc2ccc(C(=O)NCc3cc4nc(-c5ccnc(C6CCOCC6)n5)ccc4cn3)cc21             93
13  Cn1ncc2ccc(-c3ccc4cnc(CNC(=O)c5ccc6c(c5)[C@](C)(C#N)COC6)cc4n3)cc21             99
14  C[C@@]1(C#N)COCc2ccc(C(=O)NCc3cc(N4CC5(CCN(c6ccccc6)C5)C4)ccn3)cc21             79
15  Cc1cc2c(-c3ccc4cnc(CNC(=O)c5ccc6c(c5)[C@](C)(C#N)COC6)cc4n3)cccc2n1C             99
16  C[C@@]1(C#N)COCc2ccc(C(=O)NCc3cc4nc(-c5cncc(N6CC(F)(F)C6)n5)ccc4cn3)cc21             93
17  C[C@@]1(C#N)COCc2ccc(C(=O)NCc3cc4cc(-c5ccccc5)ccc4nn3)cc21             99
18  CN(C)c1cccc([C@H]2C[C@H](c3ccnc(CNC(=O)c4ccc5c(c4)[C@](C)(C#N)COC5)c3)C2)n1             98
19  C[C@@]1(C#N)COCc2ccc(C(=O)NCc3cc4nc(-c5cncc(N6CCC6)n5)ccc4cn3)cc21            100
20  C[C@@]1(C#N)COCc2ccc(C(=O)NCc3cc(N4CCc5ccc(C(F)F)cc5C4)ccn3)cc21             99
21  COCCOCCNC(=O)c1cccc(-c2ccc3cnc(CNC(=O)c4ccc5c(c4)[C@](C)(C#N)COC5)cc3n2)c1             98
22  COC(C)(C)C#Cc1cccc(-c2ccc3cnc(CNC(=O)c4ccc5c(c4)[C@](C)(C#N)COC5)cc3n2)n1             98
23  C[C@@]1(C#N)COCc2ccc(C(=O)NCc3cc4cc(-c5ccnc(N6CCC6)n5)cnc4cn3)cc21             98
24  C[C@@]1(F)COCc2ccc(C(=O)NCc3cc4nc(N5CCN(C6CC6)S5(=O)=O)ccc4cn3)cc21             83
25  C[C@@]1(C#N)COCc2ccc(C(=O)NCc3cc4nc(-c5ccnc(N6CCC6)c5F)ccc4cn3)cc21             99
26  C[C@@]1(C#N)COCc2ccc(C(=O)NCc3cc4c(nn3)CCN(c3cncc(N5CCC5)n3)C4)cc21             93
27  COC1(c2cccc(-c3ccc4cnc(CNC(=O)c5ccc6c(c5)[C@](C)(C#N)COC6)cc4n3)n2)COC1             93
